- test.name: Cytostatic activity against human Hs578 cells after 5 days by SRB assay
- Format: functional
- condition.notes: Hs578, 120 h
Reported GI50 values follow for various molecules
Your answer should be a plain number; it is taken to be in nM.

Known GI50 results, listed for orientation:
structure.notation | unit.spec | GI50
OC[C@H]1O[C@@H](n2ccc3c(-c4cn[nH]c4)ncnc32)[C@H](O)[C@@H]1O | nM | 3100
OC[C@H]1O[C@@H](n2cc(F)c3c(-c4cc[nH]c4)ncnc32)[C@H](O)[C@@H]1O | nM | 360
OC[C@H]1O[C@@H](n2ccc3c(-c4ccoc4)ncnc32)[C@H](O)[C@@H]1O | nM | 260
OC[C@H]1O[C@@H](n2ccc3c(-c4ccc[nH]4)ncnc32)[C@H](O)[C@@H]1O | nM | 1300
OC[C@H]1O[C@@H](n2ccc3c(-c4nccs4)ncnc32)[C@H](O)[C@@H]1O | nM | 290

Reported GI50 for "OC[C@H]1O[C@@H](n2cc(F)c3c(-c4ccsc4)ncnc32)[C@H](O)[C@@H]1O" : what is it?
810

Reported GI50 for "OC[C@H]1O[C@@H](n2cc(F)c3c(-c4ccoc4)ncnc32)[C@H](O)[C@@H]1O" : what is it?
180

Every entry's value here was drawn from ChEMBL document CHEMBL1156780.
